- testedTarget: recombinant human TTR F87M/L110M (human, UniProt P02766 21-147)
- assayProcedure: SPR (Biacore), mAb captured on anti-human chip, TTR F87M/L110M as analyte
assayEndpoint: Kd (nM)
Numbers only, in nM.

Task: Value lookup for Kd; key = Hu14G8 H2L2 (antibody, human IgG1, kappa, V domains shown, also called humanized 14G8 VHv2/VLv2) VH: EVQLVESGGGLVQPGGSLKLSCAASGFTFSSYTMSWVRQTPEKRLELVAEINNSGDTTYYPDTVKGRFTISRDNAKNTLYLQMSSLKSEDTAMYYCARHYYYGGGYGGWFFDVWGQGTLVTVSS VL: DIVMTQSPLSLPVTPGEPASISCRSNKSLLHSNGNTYLYWFLQKPGQSPQLLIYRVSNLASGVPDRFSGSGSGTDFTLKISRVEAEDVGVYYCMQHLEYPLTFGQGTKLEIKR
Result: 2.1
